The reported measurements were obtained from patent US20050244864A1.

Experiment: Probe fluorescence ratio response to oleate:BSA complex, relative to ADIFAB2 (ΔR/ΔRAD2)
Assay type: binding
Settings: fluorescence response (R-Ro) relative to ADIFAB2; oleate

molecule: W82F, L72A: acrylodan-labeled rI-FABP mutein W82F, L72A (protein) AFDGTWKVDRNENYEKFMEKMGINVVKRKLGAHDNLKLTITQEGNKFTVKESSNFRNIDVVFELGVDFAYSAADGTELTGTFTMEGNKLVGKFKRVDNGKELIAVREISGNELIQTYTYEGVEAKRIFKKE
ΔR/ΔRAD2 OA: 0.78

molecule: L2P23G7: acrylodan-labeled rI-FABP-L72A mutein: M18 V, G31 F, F55 L, A73 WT (protein, UniProt P02693 2-132, looked up, variant M18V G31F F55L L72A, acrylodan label, acrylodan-labeled rI-FABP-L72A mutein: M18 V, G31 F, F55 L, A73 WT) Fatty acid-binding protein, …: AFDGTWKVDRNENYEKFVEKMGINVVKRKLFAHDNLKLTITQEGNKFTVKESSNLRNIDVVFELGVDFAYSAADGTELTGTWTMEGNKLVGKFKRVDNGKELIAVREISGNELIQTYTYEGVEAKRIFKKE
ΔR/ΔRAD2 OA: 0.6
